# Experiment Notes: Binding affinity to Escherichia coli J96 FimH lectin domain (Phe1 to Thr158) expressed in Escherichia coli C43 (DE3) by surface plasmon resonance analysis
pKd: −log10 of the molar value.
Label Yes when pKd is at or above 7; anything below gets No.

>  <Structure As Smiles>
O=C(C[C@H]1O[C@H](CO)[C@@H](O)[C@H](O)[C@@H]1O)Nc1nc2ccccc2s1

>  <Label>
Yes

$$$$
>  <Structure As Smiles>
CCCCCCCO[C@H]1O[C@H](CO)[C@@H](O)[C@H](O)[C@@H]1O

>  <Label>
Yes

$$$$
>  <Structure As Smiles>
COc1ccc(C#CCO[C@H]2O[C@H](CO)[C@@H](O)[C@H](O)[C@@H]2O)cc1

>  <Label>
Yes

$$$$
>  <Structure As Smiles>
OCC#Cc1ccc(O[C@H]2O[C@H](CO)[C@@H](O)[C@H](O)[C@@H]2O)cc1

>  <Label>
Yes

$$$$
>  <Structure As Smiles>
O=C(C[C@H]1O[C@H](CO)[C@@H](O)[C@H](O)[C@@H]1O)Nc1ccccc1

>  <Label>
No

$$$$
>  <Structure As Smiles>
O=C(C[C@H]1O[C@H](CO)[C@@H](O)[C@H](O)[C@@H]1O)Nc1ccc(O)cc1

>  <Label>
No

$$$$
>  <Structure As Smiles>
O=C(C[C@H]1O[C@H](CO)[C@@H](O)[C@H](O)[C@@H]1O)Nc1nc2ccccc2[nH]1

>  <Label>
No

$$$$
>  <Structure As Smiles>
CCCSCCCO[C@H]1O[C@H](CO)[C@@H](O)[C@H](O)[C@@H]1O

>  <Label>
Yes

$$$$
